Tested on: R275C
Experiment: modulators of BK channel variants, profiling panel, selectivity assay, cell-based, U2OS BacMam, thallium flux, beta subunits (AID 1259406);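 also: initial slope of Thallos dye fluorescence rise after thallium is added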
Settings: at 30 µM
Response field class: enum, chosen by comparing log fold change Tl+ flux against group A = under -0.01, group B = from -0.01 up to 0.01, group C = 0.01 and over

Completed entries (count: 6):
[[record]]
molecule = "Cc1cc(NS(=O)(=O)c2ccc(NC(=O)c3nccnc3C(=O)O)cc2)no1"
qualitative_label = "group A"

[[record]]
molecule = "O=C1CN(N=Cc2ccc([N+](=O)[O-])o2)C(=O)N1"
qualitative_label = "group C"

[[record]]
molecule = "CC1CC2C3CCC4=CC(=O)C=CC4(C)[C@@]3(Cl)C(O)CC2(C)C1(O)C(=O)CO (some centres not stated)"
qualitative_label = "group A"

[[record]]
molecule = "O=C(NC(CO)C(O)c1ccc([N+](=O)[O-])cc1)C(Cl)Cl (configuration not stated)"
qualitative_label = "group A"

[[record]]
molecule = "Cn1cnc2cccc(F)c2c1=N"
qualitative_label = "group C"

[[record]]
molecule = "Clc1cc(Cl)c(NN=Cc2cc(C#Cc3ccccc3)cs2)c(Cl)c1"
qualitative_label = "group A"


In: Which bin, given its log fold change Tl+ flux, does CC1CNc2c(cccc2S(=O)(=O)N[C@@H](CCCN=C(N)N)C(=O)N2CC[C@@H](C)C[C@@H]2C(=O)O)C1 (some centres not stated) occupy?
Out: group A

In: Which bin, given its log fold change Tl+ flux, does CN(Cc1nnc(-c2ccc3ccccc3c2)o1)c1nnc(C(F)(F)F)s1 occupy?
Out: group B

In: Which bin, given its log fold change Tl+ flux, does Cc1nc(-c2n[nH]c(=S)n2C)cs1 occupy?
Out: group C

In: Which bin, given its log fold change Tl+ flux, does COc1ccc(C(C)=NO)cc1CN1CCCC1 occupy?
Out: group C

In: Which bin, given its log fold change Tl+ flux, does COC(=O)C1=C(C)NC(C)=C(C(=O)OC)C1c1ccccc1 occupy?
Out: group B
